Target: SRMS (human) (UniProt Q9H3Y6)
Sequence (Q9H3Y6 whole entry, looked up): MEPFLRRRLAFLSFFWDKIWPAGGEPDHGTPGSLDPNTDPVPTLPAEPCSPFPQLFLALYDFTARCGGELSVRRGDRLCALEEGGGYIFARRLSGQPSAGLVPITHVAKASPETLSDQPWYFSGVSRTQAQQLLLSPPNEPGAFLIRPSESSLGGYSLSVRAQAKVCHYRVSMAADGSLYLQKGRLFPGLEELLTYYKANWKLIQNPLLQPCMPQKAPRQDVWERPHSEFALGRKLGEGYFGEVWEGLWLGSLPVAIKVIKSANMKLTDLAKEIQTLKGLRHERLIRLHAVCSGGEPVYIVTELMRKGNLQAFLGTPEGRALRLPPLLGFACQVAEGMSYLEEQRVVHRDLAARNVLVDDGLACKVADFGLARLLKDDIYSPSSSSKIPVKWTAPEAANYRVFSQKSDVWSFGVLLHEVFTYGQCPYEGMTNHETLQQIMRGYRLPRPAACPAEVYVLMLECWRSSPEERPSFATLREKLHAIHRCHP
Assay: Caliper, Mobility shift assay off-chip
Conditions: compound 0.2 µM
REPORTED_PROPERTY: inhibition (%)

Please review the following examples before continuing.
CCN(CC)CCNC(=O)c1c(C)[nH]c(/C=C2\C(=O)Nc3ccc(F)cc32)c1C: -0.6
Cc1ccc(Nc2nccc(N(C)c3ccc4c(C)n(C)nc4c3)n2)cc1S(N)(=O)=O: 25.2

(A) COc1cc2c(Oc3ccc4[nH]c(C)cc4c3F)ncnc2cc1OCCCN1CCCC1
(B) CNC(=O)c1cc(Oc2ccc(NC(=O)Nc3ccc(Cl)c(C(F)(F)F)c3)cc2)ccn1
Enquiry: // select label with min value of measured inhibition from [ A , B ] Field: selected label. Fill in the label of the entry you choose.
Return: A
(A: -1.7%, B: 4.1%)
